All values here come from patent US20220183287A1.

Tested on: Heterodera glycines eggs
Test: Microwell assay: eggs immersed in compounds, hatch and activity of hatched J2
Format: in vivo
Conditions: 0.1%; hatched J2 per well, about 35 eggs per well
Marks after values point to notes of the source that are not given here.
Items are presented alongside their recorded Hatch Day 2.

Reported Hatch Day 2 for Heterodera glycines eggs, given CCOC(=O)c1ccccc1 [EB, Ethyl benzoate] ?
6.7 ^bcd

Reported Hatch Day 2 for Heterodera glycines eggs, given COC(=O)c1ccccc1 [MB, Methyl benzoate] ?
5.4 ^cd

Reported Hatch Day 2 for Heterodera glycines eggs, given CCCCCCOC(=O)c1ccccc1 [nHB, n-Hexyl benzoate] ?
7.3 ^bcd

Reported Hatch Day 2 for Heterodera glycines eggs, given O=C(OCc1ccccc1)c1ccccc1 [BB, Benzyl benzoate] ?
4.1 ^cd

----------
System: M. incognita eggs
Assay: Microwell assay: eggs immersed in compounds, hatch and activity of hatched J2
Assay type: in vivo, Meloidogyne incognita
Details: 0.1%; hatched J2 per well, about 35 eggs per well
Marks after values point to notes of the source that are not given here.
Property: Hatch Day 5

Known results for compounds:
CCCCCCOC(=O)c1ccccc1 [nHB, n-Hexyl benzoate] = 13.0 ^b
COC(=O)c1ccccc1 [MB, Methyl benzoate] = 3.8 ^cde
CCCOC(=O)c1ccccc1 [nPrB, n-Propyl benzoate] = 4.0 ^cde
COC(=O)c1cccc(C)c1 [M3MB, Methyl 3-methylbenzoate] = 2.7 ^cde
COC(=O)c1ccccc1OC [M2MOB, Methyl 2-methoxybenzoate] = 8.4 ^bc

# ---- query compound ----
For CCOC(=O)c1ccccc1 [EB, Ethyl benzoate] , what is its reported Hatch Day 5?
3.9 ^cde

----------
Tested on: M. incognita eggs
Assay: Microwell assay: eggs immersed in compounds, hatch and activity of hatched J2
Format: in vivo, Meloidogyne incognita
Conditions: 0.1%; hatched J2 per well, about 35 eggs per well
Marks after values point to notes of the source that are not given here.
Items are presented alongside their recorded Hatch Day 2.

COC(=O)c1ccccc1[N+](=O)[O-] [M2NB, Methyl 2-nitrobenzoate] = 5.0 ^bcd
CCOC(=O)c1ccccc1 [EB, Ethyl benzoate] = 2.4 ^cd
CCCCCOC(=O)c1ccccc1 [nPeB, n-Pentyl benzoate] = 4.9 ^bcd
COC(=O)c1ccccc1Cl [M2CB, Methyl 2-chlorobenzoate] = 1.7 ^d
CCCCCCOC(=O)c1ccccc1 [nHB, n-Hexyl benzoate] = 11.6 ^ab

Reported Hatch Day 2 for M. incognita eggs, given O=C(OCc1ccccc1)c1ccccc1 [BB, Benzyl benzoate] ?
2.6 ^cd

Reported Hatch Day 2 for M. incognita eggs, given CCCCOC(=O)c1ccccc1 [nBB, n-Butyl benzoate] ?
3.3 ^cd

Reported Hatch Day 2 for M. incognita eggs, given CCCOC(=O)c1ccccc1 [nPrB, n-Propyl benzoate] ?
3.5 ^cd

Reported Hatch Day 2 for M. incognita eggs, given COC(=O)c1cccc(C)c1 [M3MB, Methyl 3-methylbenzoate] ?
1.9 ^cd

Reported Hatch Day 2 for M. incognita eggs, given C=COC(=O)c1ccccc1 [VB, Vinyl benzoate] ?
2.7 ^cd

Reported Hatch Day 2 for M. incognita eggs, given COC(=O)c1ccccc1 [MB, Methyl benzoate] ?
2.2 ^cd

Reported Hatch Day 2 for M. incognita eggs, given CC(C)COC(=O)c1ccccc1 [iBB, iso-Butyl benzoate] ?
6.4 ^abc

Reported Hatch Day 2 for M. incognita eggs, given COC(=O)c1cccc(OC)c1 [M3MOB, Methyl 3-methoxybenzoate] ?
2.0 ^cd

Reported Hatch Day 2 for M. incognita eggs, given COC(=O)c1ccccc1C [M2MB, Methyl 2-methylbenzoate] ?
4.3 ^cd

Reported Hatch Day 2 for M. incognita eggs, given COC(=O)c1ccccc1OC [M2MOB, Methyl 2-methoxybenzoate] ?
3.4 ^cd
